# tested_system: anti-steroid Fab fragments
# test_description: Scatchard analysis of tritiated steroid binding to Fab fragments of affinity purified anti-steroid antibodies
# test_conditions: tritiated ligand, read-out: Kd for Fab fragments of the anti-steroid from Scatchard plots
outcome_measure: Kd (µM)
Answers are plain numbers, in µM.

The value of Kd measured for the compound C[C@@H]1C[C@H]2[C@@H]3CCC4=CC(=O)C=C[C@]4(C)[C@@]3(F)[C@@H](O)C[C@]2(C)[C@@]1(O)C(=O)CO turned out to be 0.15

---

# tested_system: Torpedo AChR (Tetronarce californica, UniProt P02710+P02714+P02718)
# Construct: purified Torpedo AChR preparation
# Sequence (P02710 25-461): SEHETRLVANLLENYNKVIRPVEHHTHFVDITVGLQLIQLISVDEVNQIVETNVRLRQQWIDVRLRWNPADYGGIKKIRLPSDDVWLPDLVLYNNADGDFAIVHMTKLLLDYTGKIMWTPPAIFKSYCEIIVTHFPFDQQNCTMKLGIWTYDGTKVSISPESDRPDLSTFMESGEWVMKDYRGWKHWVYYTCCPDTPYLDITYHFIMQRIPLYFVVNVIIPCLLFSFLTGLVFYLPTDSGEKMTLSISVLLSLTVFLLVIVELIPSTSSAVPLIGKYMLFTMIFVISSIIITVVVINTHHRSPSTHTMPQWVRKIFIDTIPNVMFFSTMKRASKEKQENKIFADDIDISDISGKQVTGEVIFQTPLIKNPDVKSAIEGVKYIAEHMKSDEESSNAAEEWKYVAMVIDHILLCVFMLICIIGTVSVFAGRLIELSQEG
# Sequence (P02712 25-493 partner): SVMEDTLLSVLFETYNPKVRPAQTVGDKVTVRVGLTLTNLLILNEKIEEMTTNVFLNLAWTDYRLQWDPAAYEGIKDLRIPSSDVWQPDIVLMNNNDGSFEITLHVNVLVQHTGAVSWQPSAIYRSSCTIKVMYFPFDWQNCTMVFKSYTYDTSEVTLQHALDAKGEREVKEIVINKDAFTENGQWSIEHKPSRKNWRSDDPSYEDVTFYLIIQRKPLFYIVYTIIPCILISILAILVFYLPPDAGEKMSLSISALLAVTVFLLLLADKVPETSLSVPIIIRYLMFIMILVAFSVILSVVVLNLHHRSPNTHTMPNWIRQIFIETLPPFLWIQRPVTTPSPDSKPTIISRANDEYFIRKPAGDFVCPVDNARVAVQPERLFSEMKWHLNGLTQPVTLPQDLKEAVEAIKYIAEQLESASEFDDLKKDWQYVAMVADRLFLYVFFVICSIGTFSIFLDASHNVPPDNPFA
# Sequence (P02714 18-506): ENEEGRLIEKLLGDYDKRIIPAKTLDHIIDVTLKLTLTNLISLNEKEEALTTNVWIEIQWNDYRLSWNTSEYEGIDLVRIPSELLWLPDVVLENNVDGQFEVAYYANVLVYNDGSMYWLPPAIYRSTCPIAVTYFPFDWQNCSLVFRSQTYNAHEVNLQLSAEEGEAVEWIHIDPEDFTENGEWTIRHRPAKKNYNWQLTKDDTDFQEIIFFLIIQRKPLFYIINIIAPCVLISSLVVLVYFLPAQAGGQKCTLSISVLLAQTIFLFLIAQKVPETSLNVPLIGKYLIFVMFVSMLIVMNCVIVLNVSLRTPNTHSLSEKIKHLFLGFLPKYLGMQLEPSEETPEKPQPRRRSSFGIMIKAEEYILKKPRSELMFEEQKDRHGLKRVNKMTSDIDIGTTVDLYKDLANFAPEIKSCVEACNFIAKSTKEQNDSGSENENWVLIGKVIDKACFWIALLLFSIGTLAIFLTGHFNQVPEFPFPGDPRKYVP
# Sequence (P02718 22-522): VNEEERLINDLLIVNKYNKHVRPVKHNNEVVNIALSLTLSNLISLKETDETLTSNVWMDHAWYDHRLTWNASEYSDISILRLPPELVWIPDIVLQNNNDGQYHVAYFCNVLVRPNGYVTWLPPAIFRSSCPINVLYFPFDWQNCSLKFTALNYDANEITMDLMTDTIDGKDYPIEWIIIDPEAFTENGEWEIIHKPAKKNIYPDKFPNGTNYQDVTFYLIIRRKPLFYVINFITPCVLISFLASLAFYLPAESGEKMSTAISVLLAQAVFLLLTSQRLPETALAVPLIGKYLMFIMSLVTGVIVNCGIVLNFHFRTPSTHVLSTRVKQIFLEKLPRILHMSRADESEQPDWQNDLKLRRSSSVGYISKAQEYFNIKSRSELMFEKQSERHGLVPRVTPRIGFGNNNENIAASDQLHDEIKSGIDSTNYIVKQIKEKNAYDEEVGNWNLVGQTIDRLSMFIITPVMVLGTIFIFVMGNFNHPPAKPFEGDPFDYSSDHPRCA
# test_description: Enzyme immunoassay of F8-D5 binding to Torpedo AChR and its inhibition
# Description: Wells of polystyrene plates (Corning) were then coated with 150 microliters of either 400 ng/ml purified rabbit anti-BisQ (1) in 0.1 M NaHCO3, pH 9.3, or […] purified Torpedo receptor in the same buffer. Coating was accomplished by incubating for 2 h at 37° C. […] The reaction was stopped with 50 microliters per well of 4 M H2 SO4 and the color read at 492 nm in a Multiskan Titertek apparatus. […]
outcome_measure: IC50 (µM)
One number for each entry, in µM.

The value of IC50 measured for the molecule C[N+](C)(C)Cc1cccc(/N=N/c2cccc(C[N+](C)(C)C)c2)c1 [BisQ] turned out to be 40

---

# tested_system: anti-steroid antibodies
# test_description: Competitive inhibition of binding of [3H]TA to rabbit anti-steroid antibodies (serum, affinity purified, Fab fragments)
# test_conditions: unprocessed rabbit serum 540 dil 1:1000, 1×10^-8 M [3H]TA; read-out: Rabbit Serum 540 Unprocessed: amount of unlabeled steroid that can displace 50% binding of [3H]TA
yes (1) if IC50 is below 0.1 µM. no (0) if not; exact matches included in no (0).

Worked set:
[[record]]
molecule = "C[C@]12C=CC(=O)C=C1CC[C@H]1[C@@H]3C[C@@H](O)[C@](O)(C(=O)CO)[C@@]3(C)C[C@H](O)[C@@]12F"
class_assignment = "yes (1)"

[[record]]
molecule = "C[C@]12C[C@H](O)[C@H]3[C@@H](CCC4=CC(=O)CC[C@@]43C)[C@@H]1CC[C@@H]2C(=O)CO"
class_assignment = "no (0)"

[[record]]
molecule = "CC(=O)[C@H]1CC[C@H]2[C@@H]3CCC4=CC(=O)CC[C@]4(C)[C@H]3CC[C@]12C"
class_assignment = "no (0)"

[[record]]
molecule = "C[C@]12CCC(=O)C=C1CC[C@@H]1[C@@H]2[C@@H](O)C[C@@]2(C)[C@H]1CC[C@]2(O)C(=O)CO [Hydrocortisone]"
class_assignment = "no (0)"


Moving on to the next molecule.
Asked: Just wondering, is IC50 of C[C@@H]1C[C@H]2[C@@H]3CCC4=CC(=O)C=C[C@]4(C)[C@@]3(F)[C@@H](O)C[C@]2(C)[C@@]1(O)C(=O)CO below 0.1 µM?
Given back: no (0)

---

# tested_system: anti-steroid antibodies
# test_description: Competitive inhibition of binding of [3H]TA to rabbit anti-steroid antibodies (serum, affinity purified, Fab fragments)
# test_conditions: affinity purified anti-steroid 1.3 micrograms, 1×10^-8 M [3H]TA; read-out: Affinity purified anti-steroid: amount of unlabeled steroid that can displace 50% binding of [3H]TA
outcome_measure: IC50 (µM)
Answers are plain numbers, in µM.

[[record]]
compound = "C[C@]12CCC(=O)C=C1CC[C@@H]1[C@@H]2[C@@H](O)C[C@@]2(C)[C@H]1CC[C@]2(O)C(=O)CO [Hydrocortisone]"
tested_system = "anti-steroid antibodies"
reported_measurement = 100

[[record]]
compound = "C[C@]12C=CC(=O)C=C1CC[C@H]1[C@@H]3C[C@@H](O)[C@](O)(C(=O)CO)[C@@]3(C)C[C@H](O)[C@@]12F [Triamcinolone]"
tested_system = "anti-steroid antibodies"
reported_measurement = 0.015

[[record]]
compound = "C[C@@H]1C[C@H]2[C@@H]3CCC4=CC(=O)C=C[C@]4(C)[C@@]3(F)[C@@H](O)C[C@]2(C)[C@@]1(O)C(=O)CO [Dexamethasone]"
tested_system = "anti-steroid antibodies"
reported_measurement = 0.62

[[record]]
compound = "C[C@]12C[C@H](O)[C@H]3[C@@H](CCC4=CC(=O)CC[C@@]43C)[C@@H]1CC[C@@H]2C(=O)CO [Corticosterone]"
tested_system = "anti-steroid antibodies"
reported_measurement = 100


Could you now look at the following compound, please?
The value of IC50 measured for the compound CC(=O)[C@H]1CC[C@H]2[C@@H]3CCC4=CC(=O)CC[C@]4(C)[C@H]3CC[C@]12C [Progesterone] turned out to be 100

---

# tested_system: anti-steroid antibodies
# test_description: Competitive inhibition of binding of [3H]TA to rabbit anti-steroid antibodies (serum, affinity purified, Fab fragments)
# test_conditions: competitive binding with [3H]TA as tracer (FIG. 6, Table I); read-out: apparent Kd of the anti-steroid in unprocessed rabbit serum
outcome_measure: Kd (nM)
One number for each entry, in nM.

The value of Kd measured for the compound CC1(C)O[C@@H]2C[C@H]3[C@@H]4CCC5=CC(=O)C=C[C@]5(C)[C@@]4(F)[C@@H](O)C[C@]3(C)[C@]2(C(=O)CO)O1 [triamcinolone acetonide] turned out to be 3.2

---

# tested_system: anti-steroid antibodies
# test_description: Competitive inhibition of binding of [3H]TA to rabbit anti-steroid antibodies (serum, affinity purified, Fab fragments)
# test_conditions: anti-steroid Fab fragments 0.18 micrograms, 1×10^-8 M [3H]TA; read-out: Rabbit serum 541 Fab fragments: amount of unlabeled steroid that can displace 50% binding of [3H]TA
outcome_measure: IC50 (µM)
Answers are plain numbers, in µM.

// worked examples, IC50 included
[[record]]
compound = "C[C@@H]1C[C@H]2[C@@H]3CCC4=CC(=O)C=C[C@]4(C)[C@@]3(F)[C@@H](O)C[C@]2(C)[C@@]1(O)C(=O)CO"
reported_measurement = 0.63

[[record]]
compound = "C[C@]12CCC(=O)C=C1CC[C@@H]1[C@@H]2[C@@H](O)C[C@@]2(C)[C@H]1CC[C@]2(O)C(=O)CO [Hydrocortisone]"
reported_measurement = 100


Record IC50 for all entries; do not skip any.
1. C[C@]12C[C@H](O)[C@H]3[C@@H](CCC4=CC(=O)CC[C@@]43C)[C@@H]1CC[C@@H]2C(=O)CO
2. C[C@]12C=CC(=O)C=C1CC[C@H]1[C@@H]3C[C@@H](O)[C@](O)(C(=O)CO)[C@@]3(C)C[C@H](O)[C@@]12F
3. CC(=O)[C@H]1CC[C@H]2[C@@H]3CCC4=CC(=O)CC[C@]4(C)[C@H]3CC[C@]12C

Given back:
100
0.015
100

---

# tested_system: glucocorticoid receptor (Rattus norvegicus)
# Sequence (P06536 whole entry): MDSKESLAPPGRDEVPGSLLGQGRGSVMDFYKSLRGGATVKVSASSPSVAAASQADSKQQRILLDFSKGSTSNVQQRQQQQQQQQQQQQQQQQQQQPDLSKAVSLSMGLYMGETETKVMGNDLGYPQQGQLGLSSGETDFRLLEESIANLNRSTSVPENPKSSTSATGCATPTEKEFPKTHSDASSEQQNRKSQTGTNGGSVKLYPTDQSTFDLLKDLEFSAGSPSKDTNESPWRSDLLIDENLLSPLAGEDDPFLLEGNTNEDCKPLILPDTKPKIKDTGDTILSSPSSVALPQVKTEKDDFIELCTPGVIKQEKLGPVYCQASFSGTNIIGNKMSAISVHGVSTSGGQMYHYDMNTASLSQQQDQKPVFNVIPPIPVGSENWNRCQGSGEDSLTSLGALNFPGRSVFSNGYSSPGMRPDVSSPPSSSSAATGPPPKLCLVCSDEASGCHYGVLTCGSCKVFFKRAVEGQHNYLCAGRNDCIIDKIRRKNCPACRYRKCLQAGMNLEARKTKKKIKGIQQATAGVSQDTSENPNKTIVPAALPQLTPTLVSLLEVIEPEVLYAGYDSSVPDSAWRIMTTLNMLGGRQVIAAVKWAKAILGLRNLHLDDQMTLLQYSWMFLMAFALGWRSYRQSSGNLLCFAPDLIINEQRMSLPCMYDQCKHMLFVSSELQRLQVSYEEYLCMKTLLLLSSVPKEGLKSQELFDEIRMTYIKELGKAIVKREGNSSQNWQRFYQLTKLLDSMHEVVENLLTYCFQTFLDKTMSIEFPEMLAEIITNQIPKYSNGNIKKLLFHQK
# test_description: biochemical
outcome_measure: Kd (nM)
Answers are plain numbers, in nM.

The value of Kd measured for the compound CC1(C)O[C@@H]2C[C@H]3[C@@H]4CCC5=CC(=O)C=C[C@]5(C)[C@@]4(F)[C@@H](O)C[C@]3(C)[C@]2(C(=O)CO)O1 [triamcinolone acetonide] turned out to be 15

---

# tested_system: glucocorticoid receptor (Rattus norvegicus)
# test_description: Competitive inhibition of binding of [3H]triamcinolone acetonide to glucocorticoid receptor in rat liver cytosol
# test_conditions: apparent Kd of the glucocorticoid receptor, competitive binding with [3H]TA as tracer (FIG. 6, Table I)
outcome_measure: Kd
Answer with the figure and its unit, nothing else.

Reported Kd (glucocorticoid receptor (Rattus norvegicus)) for entry CC1(C)O[C@@H]2C[C@H]3[C@@H]4CCC5=CC(=O)C=C[C@]5(C)[C@@]4(F)[C@@H](O)C[C@]3(C)[C@]2(C(=O)CO)O1 [triamcinolone acetonide] is 5 nM

FYI, the data here is from patent US5144010A.
